# STUDY TARGET: EmCV Cap-independent translation
# METHOD NOTES: In vitro translation assay, FF-EmCV-Ren construct, cap-independent (Ren luciferase)
pIC50: −log10 of the molar value.
Recorded pIC50 by entry

The examples below pair each entry with its known result.
{"CPD SMILES": "Cc1ccnc(-c2c(C(=O)/C=C/c3ccccn3)c(=O)[nH]c3ccc(Cl)cc23)c1", "STUDY TARGET": "EmCV Cap-independent translation", "ASSAY RESULT": "< 4.70"}
{"CPD SMILES": "Cn1ccnc1/C=C/C(=O)c1c(-c2ccccc2)c2cc(Cl)ccc2[nH]c1=O", "STUDY TARGET": "EmCV Cap-independent translation", "ASSAY RESULT": "5.00 to 5.70"}
{"CPD SMILES": "O=C(/C=C/c1ccc(Cl)cc1)c1c(-c2ccccc2)c2cc(Cl)ccc2[nH]c1=O", "STUDY TARGET": "EmCV Cap-independent translation", "ASSAY RESULT": "5.00 to 5.70"}

# ---- query compound ----
Exam item: Fill blank: measured pIC50 of the compound O=C(/C=C/c1cncc(F)c1)c1c(-c2cncc(Cl)c2)c2cc(Cl)ccc2[nH]c1=O is ____.
Marked response: 4.70 to 5.00

* * *

# STUDY TARGET: HCV cap-dependent translation
# METHOD NOTES: In vitro translation assay, FF-HCV-Ren construct, cap-dependent (FF luciferase)
pIC50: −log10 of the molar value.
OUTCOME MEASURE: pIC50

The examples below pair each entry with its known result.
{"CPD SMILES": "O=C(/C=C/c1ccccn1)c1c(-c2cncc(F)c2)c2cc(Cl)ccc2[nH]c1=O", "STUDY TARGET": "HCV cap-dependent translation", "pIC50": "4.70 to 5.00"}
{"CPD SMILES": "COc1ccc(-c2c(C(=O)/C=C/c3ccccn3)c(=O)[nH]c3ccc(Cl)cc23)cc1", "STUDY TARGET": "HCV cap-dependent translation", "pIC50": "4.70 to 5.00"}
{"CPD SMILES": "O=C(/C=C/c1nc2ccccc2[nH]1)c1c(-c2ccccc2)c2cc(C(F)(F)F)ccc2[nH]c1=O", "STUDY TARGET": "HCV cap-dependent translation", "pIC50": "4.70 to 5.00"}

# ---- query compound ----
Exam item: Provide value of pIC50 for this record tested with HCV cap-dependent translation: O=C(/C=C/c1nc2ccccc2[nH]1)c1c(-c2ccc(Cl)cc2)c2cc(Cl)ccc2[nH]c1=O
Marked response: 4.70 to 5.00

* * *

# METHOD NOTES: PAMPA Permeability
# Type: in vitro ADME
# TEST CONDITIONS: Donor pH 5.0, Acceptor pH 7.4, read-out: PAMPA Permeability, Pe, Donor pH 5.0
OUTCOME MEASURE: Papp (×10⁻⁶ cm/s)
Number only, in ×10⁻⁶ cm/s; omit the unit.

The examples below pair each entry with its known result.
{"COMPOUND": "O=C(/C=C/c1nc2cc(Cl)ccc2[nH]1)c1c(-c2ccccc2)c2cc(Cl)ccc2[nH]c1=O [Compound 62]", "ASSAY RESULT": 29}
{"COMPOUND": "O=C(/C=C/c1cncc(F)c1)c1c(-c2ccccc2)c2cc(Cl)ccc2[nH]c1=O [Compound 38]", "ASSAY RESULT": 1110}
{"COMPOUND": "O=C(/C=C/c1ccccc1)c1c(C2CCCCC2)c2cc(Cl)ccc2[nH]c1=O [Compound 12]", "ASSAY RESULT": 1010}

# ---- query compound ----
Exam item: Fill blank: measured Papp of the compound O=C(/C=C/c1nc2ccccc2[nH]1)c1c(O)nc2ccc(Cl)cc2c1-c1ccccc1 [BI-69A11, reference compound] is ____.
Marked response: 13

* * *

Recorded solubility by entry
# METHOD NOTES: Aqueous Solubility in 1xPBS, pH 7.4
# Assay type: physicochemical
# TEST CONDITIONS: pH 7.4, aqueous buffer
Number only, in µg/mL; omit the unit.

The examples below pair each entry with its known result.
{"COMPOUND": "O=C(/C=C/c1nc2cc(Cl)ccc2[nH]1)c1c(-c2ccccc2)c2cc(Cl)ccc2[nH]c1=O", "solubility, µg/mL": 0.11}
{"COMPOUND": "O=C(/C=C/c1ccccc1)c1c(C2CCCCC2)c2cc(Cl)ccc2[nH]c1=O", "solubility, µg/mL": 1.5}
{"COMPOUND": "O=C(/C=C/c1nc2ccccc2[nH]1)c1c(O)nc2ccc(Cl)cc2c1-c1ccccc1 [BI-69A11, reference compound]", "solubility, µg/mL": 0.11}

# ---- query compound ----
Exam item: Fill blank: measured solubility of the compound O=C(/C=C/c1cncc(F)c1)c1c(-c2ccccc2)c2cc(Cl)ccc2[nH]c1=O is ____.
Marked response: 5.6

* * *

Recorded IC50 by entry
# STUDY TARGET: HCV cap-independent translation
# METHOD NOTES: In vitro translation assay, FF-HCV-Ren construct, cap-independent (Ren luciferase)

{"CPD SMILES": "Cc1ccnc(-c2c(C(=O)/C=C/c3ccccn3)c(=O)[nH]c3ccc(Cl)cc23)c1", "IC50": "> 20 µM"}
{"CPD SMILES": "Cc1ccc(-c2c(C(=O)/C=C/c3cncc(F)c3)c(=O)[nH]c3ccc(Cl)cc23)cc1", "IC50": "2 to 10 µM"}
{"CPD SMILES": "Nc1ccc2[nH]c(=O)c(C(=O)CCc3nc4ccccc4[nH]3)c(-c3ccccc3)c2c1", "IC50": "> 20 µM"}

# ---- query compound ----
Exam item: Fill blank: measured IC50 of the compound O=C(/C=C/c1cncc(Cl)c1)c1c(-c2ccccc2)c2cc(Cl)ccc2[nH]c1=O is ____.
Marked response: 2 to 10 µM

* * *

# STUDY TARGET: EmCV Cap-dependent translation
# METHOD NOTES: In vitro translation assay, FF-EmCV-Ren construct, cap-dependent (FF luciferase)
# Assay type: biochemical, rabbit reticulocyte lysates
Recorded IC50 by entry

The examples below pair each entry with its known result.
{"COMPOUND": "N#Cc1ccc(-c2c(C(=O)/C=C/c3cncc(F)c3)c(=O)[nH]c3ccc(Cl)cc23)cc1 [Compound 89]", "IC50": "2 to 10 µM"}
{"COMPOUND": "O=C(/C(Br)=C\\c1cncc(F)c1)c1c(-c2ccccc2)c2cc(Cl)ccc2[nH]c1=O [Compound 111]", "IC50": "2 to 10 µM"}
{"COMPOUND": "CCn1c(/C=C/C(=O)c2c(-c3ccccc3)c3cc(Cl)ccc3[nH]c2=O)nc2ccccc21 [Compound 58]", "IC50": "2 to 10 µM"}
{"COMPOUND": "COc1ccc(-c2c(C(=O)/C=C/c3nc4ccccc4[nH]3)c(=O)[nH]c3ccc(Cl)cc23)cc1 [Compound 3]", "IC50": "10 to 20 µM"}
{"COMPOUND": "O=C(/C=C/c1nc2ccccc2[nH]1)c1c(-c2cccnc2)c2cc(Cl)ccc2[nH]c1=O [Compound 6]", "IC50": "2 to 10 µM"}

Exam item: Provide value of IC50 for this record tested with EmCV Cap-dependent translation: O=C(/C=C/c1ccoc1)c1c(-c2ccccc2)c2cc(Cl)ccc2[nH]c1=O [Compound 50]
Marked response: 2 to 10 µM

Exam item: Provide value of IC50 for this record tested with EmCV Cap-dependent translation: O=C(/C=C/c1ccccn1)c1c(-c2ccc(Br)cc2)c2cc(Cl)ccc2[nH]c1=O [Compound 92]
Marked response: 2 to 10 µM

Exam item: Provide value of IC50 for this record tested with EmCV Cap-dependent translation: O=C(/C=C/c1cncc(F)c1)c1c(-c2ccc(F)cc2)c2cc(Cl)ccc2[nH]c1=O [Compound 77]
Marked response: 2 to 10 µM

Exam item: Provide value of IC50 for this record tested with EmCV Cap-dependent translation: O=C(/C=C/c1nc2ccccc2[nH]1)c1c(C2CCCCC2)c2cc(Cl)ccc2[nH]c1=O [Compound 11]
Marked response: 2 to 10 µM

Exam item: Provide value of IC50 for this record tested with EmCV Cap-dependent translation: O=C(/C=C/c1ccc(C(F)(F)F)cc1)c1c(-c2ccccc2)c2cc(Cl)ccc2[nH]c1=O [Compound 39]
Marked response: 2 to 10 µM

Exam item: Provide value of IC50 for this record tested with EmCV Cap-dependent translation: O=C(/C=C/c1nc2ccccc2[nH]1)c1c(-c2ccccc2)c2ccncc2[nH]c1=O [Compound 22]
Marked response: 10 to 20 µM

Exam item: Provide value of IC50 for this record tested with EmCV Cap-dependent translation: Cn1ccnc1/C=C/C(=O)c1c(-c2ccccc2)c2cc(Cl)ccc2[nH]c1=O [Compound 45]
Marked response: 2 to 10 µM

Exam item: Provide value of IC50 for this record tested with EmCV Cap-dependent translation: O=C(/C=C/c1nc2cc(Cl)ccc2[nH]1)c1c(-c2ccccc2)c2cc(Cl)ccc2[nH]c1=O [Compound 62]
Marked response: 2 to 10 µM

Exam item: Provide value of IC50 for this record tested with EmCV Cap-dependent translation: O=C(/C=C/c1ccsc1)c1c(-c2ccccc2)c2cc(Cl)ccc2[nH]c1=O [Compound 27]
Marked response: 2 to 10 µM

Exam item: Provide value of IC50 for this record tested with EmCV Cap-dependent translation: Cc1ccnc(C#CC(=O)c2c(-c3ccccc3)c3cc(Cl)ccc3[nH]c2=O)c1 [Compound 112]
Marked response: > 20 µM

Exam item: Provide value of IC50 for this record tested with EmCV Cap-dependent translation: COc1ccc(-c2c(C(=O)/C=C/c3cncc(F)c3)c(=O)[nH]c3ccc(Cl)cc23)cc1 [Compound 79]
Marked response: 2 to 10 µM
